Tested on: Streptococcus pyogenes
Assay: microbe, parasite or virus in culture
quantityName: MIC

1. O=C(Nc1nccs1)NC12CC3CC(CC(C3)C1)C2 : > 200 µg/mL
2. Cc1ccnc(NS(=O)(=O)c2ccc(NC(=O)NC34CC5CC(CC(C5)C3)C4)cc2)n1 : > 200 µg/mL
3. O=C(Nc1nnc(-c2cccs2)o1)NC12CC3CC(CC(C3)C1)C2 : > 200 µg/mL
4. O=C(Nc1nnc(C2CCC2)o1)NC1C2CC3CC(C2)CC1C3 (stereo not given) : 100 µg/mL
5. Cc1csc(NC(=O)NC2C3CC4CC(C3)CC2C4)n1 (stereo not given) : 200 µg/mL
